Every entry's value here was drawn from PubChem BioAssay AID1030.

targetSystem: Aldehyde dehydrogenase 1A1 (Homo sapiens)
measurementProtocol: qHTS Assay for Inhibitors of Aldehyde Dehydrogenase 1 (ALDH1A1)
testContext: Purified ALDH1A1, NADH fluorescence, propionaldehyde substrate; series mostly up to 75.3 µM
In all, about 220,000 compounds went through this assay and about 16,000 (7.3%) were called active. Not shown: some 25% with an inconclusive outcome. Calls follow the shape of the dose curve; as a rule, active = well fitted inhibition curve with a large enough effect (not every such curve was filed as active); inconclusive = small, poorly fitted or top-dose-only effect, or another doubt; inactive = no such curve, though single readings can be large or run the other way. The entries come from a sample that favours actives as a whole.
Log the outcome using a class from active, inactive

Worked set:
molecule | targetSystem | classAssignment
O=C(Nc1ccon1)c1sc2ccccc2c1Cl | Aldehyde dehydrogenase 1A1 (Homo sapiens) | inactive
O=C(Nc1nc(-c2cccnc2)cs1)c1ccccc1F | Aldehyde dehydrogenase 1A1 (Homo sapiens) | inactive
Cc1ccc(-n2c(C)cc(/C=N/Nc3ccc([N+](=O)[O-])cn3)c2C)c(C)c1 | Aldehyde dehydrogenase 1A1 (Homo sapiens) | active
CC(=O)c1cc(-c2ccccc2)n(CC(=O)NC2CCCCC2)c1C | Aldehyde dehydrogenase 1A1 (Homo sapiens) | inactive
CCc1ccccc1NC(=O)c1cccs1 | Aldehyde dehydrogenase 1A1 (Homo sapiens) | active

We now examine a further compound.
**Q:** Which outcome did this test record for the compound O=C(Nc1ccc(F)cc1)N1CCN(c2ccc(F)cc2)CC1 ?
**A:** inactive

----------
targetSystem: Aldehyde dehydrogenase 1A1 (Homo sapiens)
measurementProtocol: qHTS Assay for Inhibitors of Aldehyde Dehydrogenase 1 (ALDH1A1)
testContext: Purified ALDH1A1, NADH fluorescence, propionaldehyde substrate; series mostly up to 75.3 µM
Hit rate of the full screen: of about 220,000 compounds, about 16,000 (7.3%) were called active. Not shown: some 25% with an inconclusive outcome. Calls follow the shape of the dose curve; as a rule, active = well fitted inhibition curve with a large enough effect (not every such curve was filed as active); inconclusive = small, poorly fitted or top-dose-only effect, or another doubt; inactive = no such curve, though single readings can be large or run the other way. Many of the other results were omitted from the sample, so actives are more common in it than they were.
Log the outcome using a class from active, inactive

Worked set:
compound | targetSystem | classAssignment
Cc1ccc(NC(=O)c2cccnc2C(=O)Nc2ccc(C)cc2)cc1 | Aldehyde dehydrogenase 1A1 (Homo sapiens) | inactive
O=C1N(Cc2ccc3c(c2)OCO3)c2ccccc2C1(O)c1c[nH]c2ccccc12 (stereo not given) | Aldehyde dehydrogenase 1A1 (Homo sapiens) | active
Cc1ccc(Cl)c(NC(=O)CN2CCN(C=O)CC2)c1 | Aldehyde dehydrogenase 1A1 (Homo sapiens) | inactive
CCC1(C(=O)c2ccccc2)C(c2cccc([N+](=O)[O-])c2)C1(C(=O)OC)C(=O)OC (stereo not given) | Aldehyde dehydrogenase 1A1 (Homo sapiens) | inactive
CC(O)CNCCOc1cccc(Oc2ccccc2)c1 (stereo not given) | Aldehyde dehydrogenase 1A1 (Homo sapiens) | inactive

We now examine a further compound.
**Q:** Which outcome did this test record for the compound CC(C)(C)NC(=O)CN(C(=O)c1csnn1)c1ccccc1-c1ccccc1 ?
**A:** inactive

----------
targetSystem: Aldehyde dehydrogenase 1A1 (Homo sapiens) (UniProt P00352)
Sequence (P00352 whole entry, looked up): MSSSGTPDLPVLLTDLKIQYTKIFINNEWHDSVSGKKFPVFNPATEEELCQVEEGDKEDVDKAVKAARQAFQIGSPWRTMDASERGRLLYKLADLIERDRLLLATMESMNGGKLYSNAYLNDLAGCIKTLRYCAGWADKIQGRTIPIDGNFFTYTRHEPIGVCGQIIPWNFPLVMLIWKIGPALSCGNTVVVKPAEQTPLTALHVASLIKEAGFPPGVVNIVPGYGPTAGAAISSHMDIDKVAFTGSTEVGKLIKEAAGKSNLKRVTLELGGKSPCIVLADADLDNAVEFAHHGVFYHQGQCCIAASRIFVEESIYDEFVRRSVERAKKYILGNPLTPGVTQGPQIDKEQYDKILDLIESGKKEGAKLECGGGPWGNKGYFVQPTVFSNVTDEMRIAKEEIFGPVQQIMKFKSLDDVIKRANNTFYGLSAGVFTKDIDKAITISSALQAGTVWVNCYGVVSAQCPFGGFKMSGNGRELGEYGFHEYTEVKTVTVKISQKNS
measurementProtocol: qHTS Assay for Inhibitors of Aldehyde Dehydrogenase 1 (ALDH1A1); also: potency is read from the fitted curve at half-maximal effect
testContext: Purified ALDH1A1, NADH fluorescence, propionaldehyde substrate; series mostly up to 75.3 µM
Screen size: about 220,000 compounds; about 16,000 (7.3%) were called active. Roughly 25% stayed inconclusive and do not appear here. The sample holds actives, similar compounds and a random draw of the others, so the mix is not that of the screen.
valueType: Potency

Past entries and their recorded results:
molecule | reportedValue
CSc1cccc(NC(=S)N(Cc2ccccc2)Cc2ccccn2)c1 | inactive
NC(=O)C1CCN(C2OC(=O)c3ccccc32)CC1 (stereo not drawn) | inactive
Cc1ccc(C)c(-n2ccnc2SCC(N)=O)c1 | inactive
COC(=O)c1ccc(NC(=S)Nc2cccc(C)n2)cc1 | inactive
CCn1c2ccccc2c2cc(NC(=O)COC(=O)c3ccccc3Br)ccc21 | inactive

Value sought for every listed molecule: Potency.
1. COc1ccc(/C=C(\C#N)C(=O)NCCCn2ccnc2)cc1
2. O=C(CCC(=O)c1cccs1)NC1CCCCCC1
3. CCN=c1sc(C(=O)Nc2ccccc2)c(C)n1CC
4. CC(=O)/C(C)=N/O
5. Cc1nn2cc(-c3ccc(Cl)cc3)cnc2c1Br
6. CC(=O)OC(COc1ccc(F)cc1)Cn1cnc2ccccc21 (stereo not drawn)
7. O=[N+]([O-])c1ccccc1SNc1ccccn1

**A:**
1. inactive
2. inactive
3. inactive
4. inactive
5. inactive
6. inactive
7. 20 µM (active)

Value sought for every listed molecule: Potency.
1. CCOC(=O)c1ccccc1C(=O)N1CCOCCOCCOCC1
2. COc1ccc(/C=C(\C#N)C(=O)ONC2=NCCCCC2)cc1
3. CCC1CCCCN1C(=O)CSc1nc2c(c(=O)n(C)c(=O)n2C)n1C (stereo not drawn)
4. Oc1c(C(c2ccccn2)N2CCOCC2)ccc2cccnc12 (stereo not drawn)
5. CCOC(=O)N1CCN(C(=O)CSc2ccc(Cl)cc2)CC1

**A:**
1: inactive; 2: 35.5 µM (active); 3: 12.6 µM (active); 4: inactive; 5: inactive

Value sought for every listed molecule: Potency.
1. O=C(Cc1ccccc1)NNC1CC(=O)N(c2ccc(Br)cc2)C1=O (stereo not drawn)
2. O=C(Nc1ccccc1N1CCOCC1)c1csc2c1CCCC2
3. Cn1c(=O)c2c(nc(SCC(=O)Nc3ccccc3N3CCCCC3)n2C)n(C)c1=O

**A:**
["inactive", "inactive", "inactive"]

Value sought for every listed molecule: Potency.
1. O=C(N/N=C/c1ccccn1)c1ccc(S(=O)(=O)N2CCCCCC2)cc1
2. CC(c1ccco1)N(C(=O)c1ccc(S(=O)(=O)N2CCCCC2)cc1)c1ccccn1 (stereo not drawn)
3. O=C(c1ccc(C(F)(F)F)cc1)C1CCCN(C(=O)c2csnn2)C1 (stereo not drawn)
4. O=C(NCc1ccccc1Cl)c1csc2c1CCCCC2
5. CCOC(=O)c1ccc(NC(=S)N2CCCC2)cc1
6. COc1cccc(C2c3[nH]c4ccccc4c3CCN2Cc2cccc(C)n2)c1 (stereo not drawn)
7. O=C(Cl)c1ccccc1[N+](=O)[O-]

**A:**
1. inactive
2. 12.6 µM (active)
3. inactive
4. inactive
5. inactive
6. inactive
7. inactive

----------
targetSystem: Aldehyde dehydrogenase 1A1 (Homo sapiens) (UniProt P00352)
measurementProtocol: qHTS Assay for Inhibitors of Aldehyde Dehydrogenase 1 (ALDH1A1); also: potency is read from the fitted curve at half-maximal effect
testContext: Purified ALDH1A1, NADH fluorescence, propionaldehyde substrate; series mostly up to 75.3 µM
About 16,000 (7.3%) of roughly 220,000 compounds were called active. Another 25% or so got no clear call; they are omitted. The sample holds actives, similar compounds and a random draw of the others, so the mix is not that of the screen.
valueType: Potency

Past entries and their recorded results:
compound | Potency
CC(C)NC(=O)NC(=O)COC(=O)c1ccc(NC(=O)CC#N)cc1 | inactive
CNC(=S)N/N=C/c1ccc(N2CCOCC2)s1 | 8.91 µM (active)
CNC(=S)N/N=C/c1cn(Cc2ccc(C)cc2)c2ccccc12 | inactive
COC(=O)c1ccc(/C=N/N2C(C)CCCC2C)cc1 (stereo unspecified) | inactive
CC(C)(C)NC(=O)NC(=O)COC(=O)CCC1CCCCC1 | inactive
CCOc1ccc(N2C(=O)/C(=C/c3ccc(C)o3)N(C)C2=S)cc1 | 7.94 µM (active)

Value sought for every listed compound: Potency.
1. COc1ccc(C(CCNCc2ccccc2F)c2ccc(F)cc2)cc1 (stereo unspecified)
2. COc1ccc(-n2c(C)cc(C(=O)CN3C(=O)NC4(CCc5ccccc54)C3=O)c2C)cc1 (stereo unspecified)
3. CSc1nc(C)nc(C2CC2)c1C#N
4. COc1ccc(N2CC(C)Cn3c2nc2c3c(=O)n(Cc3ccccc3F)c(=O)n2C)c(OC)c1 (stereo unspecified)
5. CC1CN(C2CCCCC2)c2nc3c(c(=O)n(C)c(=O)n3C)n2C1 (stereo unspecified)

**A:**
inactive
inactive
inactive
17.8 µM (active)
inactive

----------
targetSystem: Aldehyde dehydrogenase 1A1 (Homo sapiens) (UniProt P00352)
measurementProtocol: qHTS Assay for Inhibitors of Aldehyde Dehydrogenase 1 (ALDH1A1)
testContext: Purified ALDH1A1, NADH fluorescence, propionaldehyde substrate; series mostly up to 75.3 µM
About 16,000 (7.3%) of roughly 220,000 compounds were called active. About 25% were inconclusive and are not listed. The call rests on the fitted dose curve; in most records, active means well fitted inhibition curve with a large enough effect (not every such curve was filed as active); inconclusive means small, poorly fitted or top-dose-only effect, or another doubt; inactive means no such curve, though single readings can be large or run the other way. What follows is part of a selection rich in actives, with near analogues and random picks from the rest.
Log the outcome using a class from active, inactive

Worked set:
compound | targetSystem | classAssignment
O=C(COC(=O)c1ccncc1)c1ccccc1 | Aldehyde dehydrogenase 1A1 (Homo sapiens) (UniProt P00352) | inactive
O=C(Nc1cccc([N+](=O)[O-])c1)Nc1ccc(Cl)cn1 | Aldehyde dehydrogenase 1A1 (Homo sapiens) (UniProt P00352) | inactive
O=C(Nn1cnc2ccccc2c1=O)c1ccc([N+](=O)[O-])cc1Cl | Aldehyde dehydrogenase 1A1 (Homo sapiens) (UniProt P00352) | inactive
COc1ccc(-n2nc(C(=O)Nc3cc(OC)c(OC)c(OC)c3)c3ccccc3c2=O)c(OC)c1 | Aldehyde dehydrogenase 1A1 (Homo sapiens) (UniProt P00352) | inactive
O=C(c1ccco1)N1CCC2(CC1)CCN(c1ncccn1)CC2 | Aldehyde dehydrogenase 1A1 (Homo sapiens) (UniProt P00352) | active
CCCCn1c(=S)[nH]c2ccccc2c1=O | Aldehyde dehydrogenase 1A1 (Homo sapiens) (UniProt P00352) | inactive
Clc1ccc(-c2cc(-c3ccccn3)on2)c(Cl)c1 | Aldehyde dehydrogenase 1A1 (Homo sapiens) (UniProt P00352) | inactive
S=c1[nH]nc(-c2cccnc2)n1/N=C/C(Cl)=C\c1ccccc1 | Aldehyde dehydrogenase 1A1 (Homo sapiens) (UniProt P00352) | inactive
O=C(CCl)N(Cc1cccc([N+](=O)[O-])c1)c1cccc(Cl)c1 | Aldehyde dehydrogenase 1A1 (Homo sapiens) (UniProt P00352) | active
C=C(C)Cn1c(N2CCCC2)nc2c1c(=O)[nH]c(=O)n2C | Aldehyde dehydrogenase 1A1 (Homo sapiens) (UniProt P00352) | inactive

**Q:** Which outcome did this test record for the compound CN(C)CCn1c(=S)[nH]c2ccc(Cl)cc2c1=O ?
**A:** inactive
